- STUDY_SYSTEM: Cyclooxygenase 1 (COX1) (Homo sapiens)
- Sequence (P23219 24-599): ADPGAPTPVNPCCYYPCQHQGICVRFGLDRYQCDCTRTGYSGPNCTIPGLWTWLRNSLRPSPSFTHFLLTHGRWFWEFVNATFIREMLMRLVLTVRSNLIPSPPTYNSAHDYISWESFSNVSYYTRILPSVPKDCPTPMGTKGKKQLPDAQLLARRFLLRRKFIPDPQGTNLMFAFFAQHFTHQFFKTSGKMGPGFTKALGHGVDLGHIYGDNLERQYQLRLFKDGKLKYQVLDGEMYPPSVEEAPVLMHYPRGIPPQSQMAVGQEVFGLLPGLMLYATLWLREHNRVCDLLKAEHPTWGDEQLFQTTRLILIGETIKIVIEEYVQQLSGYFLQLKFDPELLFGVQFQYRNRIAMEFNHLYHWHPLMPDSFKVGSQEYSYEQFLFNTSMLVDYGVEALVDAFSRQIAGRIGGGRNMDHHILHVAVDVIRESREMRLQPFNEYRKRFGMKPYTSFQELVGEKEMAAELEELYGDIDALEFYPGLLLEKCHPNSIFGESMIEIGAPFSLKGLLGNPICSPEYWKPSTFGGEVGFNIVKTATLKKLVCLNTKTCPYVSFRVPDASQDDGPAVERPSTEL
Structures can show the parent of a compound that is named as a salt.
METRIC_NAME: IC50

# get_value(readout='IC50', item= CNC(C)C(=O)c1c[nH]c2ccc(Cl)cc12 (stereo not drawn) [BK-5Cl-NM-AMT, hydrochloride] ) > 10 µM

Try this compound next: CNC(C)C(=O)c1c[nH]c2ccc(F)cc12 (stereo not drawn) [BK-5F-NM-AMT, hydrochloride] > 10 µM

// query: CNC(C)C(=O)c1c[nH]c2ccc(Br)cc12 (stereo not drawn) [BK-5Br-NM-AMT, hydrochloride] > 10 µM

###

- STUDY_SYSTEM: Adrenergic Receptor β1 (ADRB1) (Homo sapiens)
- Sequence (P08588 whole entry): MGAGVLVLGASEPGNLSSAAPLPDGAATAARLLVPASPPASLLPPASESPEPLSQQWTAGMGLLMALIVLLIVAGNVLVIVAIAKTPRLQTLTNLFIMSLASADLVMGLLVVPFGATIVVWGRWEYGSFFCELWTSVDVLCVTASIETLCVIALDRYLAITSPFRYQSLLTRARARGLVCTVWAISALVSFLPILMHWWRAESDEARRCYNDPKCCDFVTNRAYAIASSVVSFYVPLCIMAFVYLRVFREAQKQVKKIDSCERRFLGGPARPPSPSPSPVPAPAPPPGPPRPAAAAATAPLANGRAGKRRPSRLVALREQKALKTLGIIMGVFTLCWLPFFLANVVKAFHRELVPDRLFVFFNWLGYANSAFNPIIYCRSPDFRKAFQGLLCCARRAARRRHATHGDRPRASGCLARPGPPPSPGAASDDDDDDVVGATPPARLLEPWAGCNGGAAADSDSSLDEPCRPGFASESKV
- TEST_DETAILS: cAMP assay, ADRB1
pEC50: −log10 of the molar value. Where a name gives a salt, the structure may show the parent alone.
METRIC_NAME: pEC50

Any idea what pEC50 was measured for CNC(C)C(=O)c1c[nH]c2ccc(Br)cc12 (stereo not drawn) [BK-5Br-NM-AMT, hydrochloride] ? < 5.00

What about CNC(C)C(=O)c1c[nH]c2ccc(Cl)cc12 (stereo not drawn) [BK-5Cl-NM-AMT, hydrochloride] ? < 5.00

Another molecule to look at: CNC(C)C(=O)c1c[nH]c2ccc(F)cc12 (stereo not drawn) [BK-5F-NM-AMT, hydrochloride] < 5.00

###

- STUDY_SYSTEM: Cannabinoid Receptor 2 (CNR2) (Homo sapiens)
- Sequence (P34972 whole entry): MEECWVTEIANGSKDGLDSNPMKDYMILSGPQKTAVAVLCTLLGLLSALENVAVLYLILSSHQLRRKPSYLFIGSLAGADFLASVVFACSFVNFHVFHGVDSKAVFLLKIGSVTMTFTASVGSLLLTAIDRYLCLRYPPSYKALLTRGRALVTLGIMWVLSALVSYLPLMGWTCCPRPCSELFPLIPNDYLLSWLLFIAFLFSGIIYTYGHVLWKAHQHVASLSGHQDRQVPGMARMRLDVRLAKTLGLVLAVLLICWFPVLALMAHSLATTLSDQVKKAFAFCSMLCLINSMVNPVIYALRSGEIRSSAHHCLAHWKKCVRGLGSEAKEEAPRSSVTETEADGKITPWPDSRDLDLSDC
- TEST_DETAILS: cAMP assay, CNR2
Structures can show the parent of a compound that is named as a salt.
Would you kindly list EC50 for each of these molecules?

Entry under review: CNC(C)C(=O)c1c[nH]c2ccc(Br)cc12 (stereo not drawn) [BK-5Br-NM-AMT, hydrochloride] . Reported EC50? > 10 µM

Same for CNC(C)C(=O)c1c[nH]c2ccc(F)cc12 (stereo not drawn) [BK-5F-NM-AMT, hydrochloride] > 10 µM

Also need CNC(C)C(=O)c1c[nH]c2ccc(Cl)cc12 (stereo not drawn) [BK-5Cl-NM-AMT, hydrochloride] , thanks. > 10 µM

###

For each entry below, report its IC50 value.
- STUDY_SYSTEM: CGMP-inhibited cyclic nucleotide phosphodiesterase 3A (PDE3A) (Homo sapiens, UniProt Q14432)
- Sequence (Q14432 whole entry): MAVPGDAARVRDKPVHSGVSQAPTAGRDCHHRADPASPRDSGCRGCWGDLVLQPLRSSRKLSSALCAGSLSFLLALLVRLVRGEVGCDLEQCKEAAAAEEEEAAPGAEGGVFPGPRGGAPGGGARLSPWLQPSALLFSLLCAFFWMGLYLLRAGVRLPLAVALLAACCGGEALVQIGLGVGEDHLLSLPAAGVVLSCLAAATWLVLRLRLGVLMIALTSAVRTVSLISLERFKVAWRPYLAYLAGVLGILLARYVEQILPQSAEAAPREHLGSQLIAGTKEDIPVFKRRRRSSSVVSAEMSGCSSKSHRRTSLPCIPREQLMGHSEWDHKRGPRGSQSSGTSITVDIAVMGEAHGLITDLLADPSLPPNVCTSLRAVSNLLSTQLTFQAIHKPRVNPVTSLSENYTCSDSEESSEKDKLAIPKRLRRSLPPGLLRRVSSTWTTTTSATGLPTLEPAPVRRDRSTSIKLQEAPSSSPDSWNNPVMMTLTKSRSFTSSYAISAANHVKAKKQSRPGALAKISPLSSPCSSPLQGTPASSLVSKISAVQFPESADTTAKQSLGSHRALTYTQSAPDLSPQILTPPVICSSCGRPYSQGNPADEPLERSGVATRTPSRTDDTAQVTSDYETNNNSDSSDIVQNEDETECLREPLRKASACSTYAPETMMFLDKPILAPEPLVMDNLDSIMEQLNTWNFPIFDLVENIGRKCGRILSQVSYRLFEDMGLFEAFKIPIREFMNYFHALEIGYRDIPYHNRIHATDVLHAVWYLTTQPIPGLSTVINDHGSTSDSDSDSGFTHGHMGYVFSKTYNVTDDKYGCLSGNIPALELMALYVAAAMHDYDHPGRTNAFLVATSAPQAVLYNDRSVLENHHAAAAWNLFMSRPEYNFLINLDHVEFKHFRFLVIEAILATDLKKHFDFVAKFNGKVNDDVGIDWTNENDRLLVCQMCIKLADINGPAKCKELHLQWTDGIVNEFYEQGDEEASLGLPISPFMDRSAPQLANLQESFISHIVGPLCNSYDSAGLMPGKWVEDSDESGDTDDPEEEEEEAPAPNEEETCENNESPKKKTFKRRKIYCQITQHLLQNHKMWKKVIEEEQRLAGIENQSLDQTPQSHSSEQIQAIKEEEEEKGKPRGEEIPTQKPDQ
Structures can show the parent of a compound that is named as a salt.

# get_value(readout='IC50', item= CNC(C)C(=O)c1c[nH]c2ccc(Br)cc12 (stereo not drawn) [BK-5Br-NM-AMT, hydrochloride] ) > 10 µM

Next molecule: CNC(C)C(=O)c1c[nH]c2ccc(F)cc12 (stereo not drawn) [BK-5F-NM-AMT, hydrochloride] > 10 µM

# iterate: CNC(C)C(=O)c1c[nH]c2ccc(Cl)cc12 (stereo not drawn) [BK-5Cl-NM-AMT, hydrochloride] > 10 µM

###

- STUDY_SYSTEM: Adrenergic Receptor α1A (ADRA1A) (Homo sapiens, UniProt P35348)
- Sequence (P35348 whole entry): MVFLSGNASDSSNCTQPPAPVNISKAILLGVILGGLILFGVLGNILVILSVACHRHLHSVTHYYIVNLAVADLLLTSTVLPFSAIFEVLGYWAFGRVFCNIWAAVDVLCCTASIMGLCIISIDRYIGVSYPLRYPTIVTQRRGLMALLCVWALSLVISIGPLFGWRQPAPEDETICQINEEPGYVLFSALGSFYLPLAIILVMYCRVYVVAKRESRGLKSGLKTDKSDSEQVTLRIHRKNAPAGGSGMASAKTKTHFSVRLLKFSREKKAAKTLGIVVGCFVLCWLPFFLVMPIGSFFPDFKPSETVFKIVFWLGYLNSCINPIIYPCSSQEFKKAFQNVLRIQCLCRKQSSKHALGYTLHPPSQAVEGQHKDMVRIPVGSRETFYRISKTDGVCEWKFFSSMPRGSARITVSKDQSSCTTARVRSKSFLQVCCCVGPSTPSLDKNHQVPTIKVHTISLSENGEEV
- TEST_DETAILS: Calcium flux assay, ADRA1A
Where a name gives a salt, the structure may show the parent alone.
METRIC_NAME: IC50

Param item = CNC(C)C(=O)c1c[nH]c2ccc(Cl)cc12 (stereo not drawn) [BK-5Cl-NM-AMT, hydrochloride] ; retrieve measured IC50. > 10 µM

Same lookup for CNC(C)C(=O)c1c[nH]c2ccc(Br)cc12 (stereo not drawn) [BK-5Br-NM-AMT, hydrochloride] , please. > 10 µM

Item: CNC(C)C(=O)c1c[nH]c2ccc(F)cc12 (stereo not drawn) [BK-5F-NM-AMT, hydrochloride] > 10 µM
